Listed next: entries and their corresponding protein stability index.
B1: PLAGL1 (parent)
chain: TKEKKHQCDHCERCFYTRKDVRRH

variants of: B1; experiment: protein stability index of a GFP-peptide fusion (GPS, HEK-293T) (PSI 1-6); higher = more stable; conditions: c terminus: a fixed tail appended;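 further: lentivirally expressed fusions sorted by FACS into six bins by GFP to DsRed ratio, PSI derived from sequencing read proportions per bin multiplied by bin number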
Could you keep your reply to the number by itself?

Example entries begin here.
H10E : 3.37
H24Y : 2.79
T1E : 3.82
V21P : 2.97
H6F : 3.01

As a next step, examine the variant that follows.
[in] Name the recorded protein stability index for `T1W` .
[out] 3.54

The values you see were collected from the supplement of paper PMC10567573.
